Values from patent US8178506B2

GLUT4 mRNA values for the substances below.
tested on: Glut4; experiment: Glut4 mRNA expression in adipocytes (real-time PCR); assay type: cell-based, human; conditions: differentiating adipocytes transfected with oligomeric compound; Table 75
In the oligonucleotide strings, read from the 5' end, every base follows the letter of its sugar. An asterisk marks phosphorothioate; unmarked linkages are phosphodiester. Other units and linkages are bracketed, terminal groups are in braces. A string of capitals states the bases alone. e = 2'-O-(2-methoxyethyl) (MOE); [5mC] = 5-methylcytosine

- substance: "346689 (CAUCAUUACCAGGCAGUAUUAGAG; all 2'-MOE, all phosphorothioate, methylation of C and T or U not given here) [compound 346689]"
  GLUT4 mRNA: "45 percentage of untreated control (UTC)"
- substance: "328092 (antisense eG*eG*eT*eA*eG*eG*eT*eG*eG*eA*eA*eT*eA*e[5mC]*eT*eA*eT*eA*eA*e[5mC]*eA) [compound 328092]"
  GLUT4 mRNA: "78 percentage of untreated control (UTC)"
- substance: "328120 (antisense eA*eA*eG*eA*eA*eG*eG*eA*eA*eG*eG*eA*eG*eG*eG*eA*eA*eA*eG*e[5mC]*eA) [compound 328120]"
  GLUT4 mRNA: "68 percentage of untreated control (UTC)"
- substance: "346691 (GCAGAAGCAUUUCCACACAC; all 2'-MOE, all phosphorothioate, methylation of C and T or U not given here) [compound 346691]"
  GLUT4 mRNA: "64 percentage of untreated control (UTC)"
- substance: "344342 (AUGCUUUUUGGGGUAAGGGCUU; anti-miR; all 2'-MOE, all phosphorothioate, methylation of C and T or U not given here) [compound 344342]"
  GLUT4 mRNA: "71 percentage of untreated control (UTC)"
- substance: "344611 (ACAUUUUUCGUUAUUGCUCUUGA; anti-miR; all 2'-MOE, all phosphorothioate, methylation of C and T or U not given here) [compound 344611]"
  GLUT4 mRNA: "3 percentage of untreated control (UTC)"
- substance: "328109 (antisense eA*eA*eA*eG*eA*eA*eG*eT*eA*eT*eA*eT*eG*e[5mC]*eA*eT*eA*eG*eG*eA*eA) [compound 328109]"
  GLUT4 mRNA: "55 percentage of untreated control (UTC)"
- substance: "328125 (antisense eT*eA*eT*eG*eA*eA*eA*eT*eG*e[5mC]*e[5mC]*eA*eG*eA*eG*e[5mC]*eT*eG*e[5mC]*e[5mC]*eA) [compound 328125]"
  GLUT4 mRNA: "65 percentage of untreated control (UTC)"
- substance: "341795 (antisense AACCAAUGUGCAGACUACUGUA; all 2'-MOE, all phosphorothioate, methylation of C and T or U not given here) [compound 341795]"
  GLUT4 mRNA: "55 percentage of untreated control (UTC)"
- substance: "346909 (UCACCAAAACAUGGAAGCACUUA; all 2'-MOE, all phosphorothioate, methylation of C and T or U not given here) [compound 346909]"
  GLUT4 mRNA: "64 percentage of untreated control (UTC)"
- substance: "328091 (antisense eG*e[5mC]*eT*eG*e[5mC]*e[5mC]*eG*eT*eA*eT*eA*eT*eG*eT*eG*eA*eT*eG*eT*e[5mC]*eA) [compound 328091]"
  GLUT4 mRNA: "26 percentage of untreated control (UTC)"
- substance: "328099 (antisense eA*eA*eG*eA*eA*e[5mC]*eA*eT*eT*eA*eA*eG*e[5mC]*eA*eT*e[5mC]*eT*eG*eA*e[5mC]*eA) [compound 328099]"
  GLUT4 mRNA: "61 percentage of untreated control (UTC)"
- substance: "328090 (antisense eA*eT*eT*eA*eA*eA*eA*eA*eG*eT*e[5mC]*e[5mC]*eT*e[5mC]*eT*eT*eG*e[5mC]*e[5mC]*e[5mC]*eA) [compound 328090]"
  GLUT4 mRNA: "86 percentage of untreated control (UTC)"
- substance: "327900 (antisense e[5mC]*eT*eG*e[5mC]*e[5mC]*eT*eG*eT*e[5mC]*eT*eG*eT*eG*e[5mC]*e[5mC]*eT*eG*e[5mC]*eT*eG*eT) [compound 327900]"
  GLUT4 mRNA: "12 percentage of untreated control (UTC)"
- substance: "348125 (GCUGGAUGCAAACCUGCAAAACU; anti-miR; all 2'-MOE, all phosphorothioate, methylation of C and T or U not given here) [compound 348125]"
  GLUT4 mRNA: "65 percentage of untreated control (UTC)"
- substance: "344276 (antisense CAGGCAUAGGAUGACAAAGGGAA; all 2'-MOE, all phosphorothioate, methylation of C and T or U not given here) [compound 344276]"
  GLUT4 mRNA: "49 percentage of untreated control (UTC)"
